System: Staphylococcus aureus
ASSAY_REMARKS: Antibacterial activity against Staphylococcus aureus ATCC25923 under 10^7 CFU/ml of bacterial inoculum culture by absorbance based assay
Type: functional
ASSAY_ENDPOINT: MIC (µg/mL)
One number for each entry, in µg/mL.

C[C@@H](O)[C@H]1C(=O)N2C(C(=O)O)=C(S[C@@H]3CN[C@H](C(=O)N(C)C)C3)[C@H](C)[C@H]12	2
CC[C@H]1OC(=O)C[C@@H](O)[C@H](C)[C@@H](O[C@@H]2O[C@H](C)[C@@H](O)[C@H](N(C)C)[C@H]2O)[C@@H](CCN2CCCCC2)C[C@@H](C)C(=O)/C=C/C(C)=C/[C@@H]1CN1CCCCC1	1
CC[C@H]1OC(=O)C[C@@H](O)[C@H](C)[C@@H](O[C@@H]2O[C@H](C)[C@@H](O)[C@H](N(C)C)[C@H]2O)[C@@H](CCN(C)Cc2cn(-c3cnc4ccccc4c3)nn2)C[C@@H](C)C(=O)/C=C/C(C)=C/[C@@H]1CNCc1cccc(C)c1	0.5

Moving on to the next compound.
# input Bench note: what MIC did CC[C@H]1OC(=O)C[C@@H](O)[C@H](C)[C@@H](O[C@@H]2O[C@H](C)[C@@H](O[C@H]3C[C@@](C)(O)[C@@H](O)[C@H](C)O3)[C@H](N(C)C)[C@H]2O)[C@@H](CC=O)C[C@@H](C)C(=O)/C=C/C(C)=C/[C@@H]1CO[C@@H]1O[C@H](C)[C@@H](O)[C@@H](OC)[C@H]1OC show?
# output 4

Recorded values, source ChEMBL document CHEMBL6074711.
